system: human blood; test: Labeling of blood cells: yield of cell labeling in whole blood; type: cell-based; details: 2 mCi (74 MBq) in 3 mL fresh human blood, 10 minutes, after washings
Listed next: entries and their corresponding Yield (±3%) of cell labeling.
Provide only the numeric value, understood in %.

Study these solved cases before continuing.
{"compound": "CCCCc1ccc(C(=S)S[S][99Tc]([S]SC(=S)c2ccc(CCCC)cc2)[S]C(=S)c2ccc(CCCC)cc2)cc1 [Example 11, [^99mTc(4-nBuPhCS3)2(4-nBuPhCS2)]]", "Yield (±3%) of cell labeling": 97}
{"compound": "CCOc1ccc(C(=S)S[S][99Tc]([S]SC(=S)c2ccc(OCC)cc2)[S]C(=S)c2ccc(OCC)cc2)cc1 [Example 13, [^99mTc(4-EtOPhCS3)2(4-EtOPhCS2)]]", "Yield (±3%) of cell labeling": 99}
{"compound": "CCc1ccc(C(=S)S[S][99Tc]([S]SC(=S)c2ccc(CC)cc2)[S]C(=S)c2ccc(CC)cc2)cc1 [Example 7, [^99mTc(4-EtPhCS3)2(4-EtPhCS2)]]", "Yield (±3%) of cell labeling": 93}
{"compound": "Fc1ccc(C(=S)S[S][99Tc]([S]SC(=S)c2ccc(F)cc2)[S]C(=S)c2ccc(F)cc2)cc1 [Example 19, [^99mTc(4-FPhCS3)2 (4-FPhCS2)]]", "Yield (±3%) of cell labeling": 99}
{"compound": "Oc1ccc(C(=S)S[S][99Tc]([S]SC(=S)c2ccc(O)cc2)[S]C(=S)c2ccc(O)cc2)cc1 [Example 17, [^99mTc(4-OHPhCS3)2(4-OHPhCS2)]]", "Yield (±3%) of cell labeling": 93}

q: Look at this compound and give its reported Yield (±3%) of cell labeling. S=C(CCc1ccccc1)S[S][99Tc]([S]SC(=S)CCc1ccccc1)[S]C(=S)CCc1ccccc1 [Example 28, [^99mTc(PhCH2CH2CS3)2(PhCH2CH2CS2)]]
a: 91

q: Look at this compound and give its reported Yield (±3%) of cell labeling. COc1cccc(C(=S)S[S][99Tc]([S]SC(=S)c2cccc(OC)c2)[S]C(=S)c2cccc(OC)c2)c1 [Example 16, [^99mTc(3-MeOPhCS3)2(3-MeOPhCS2)]]
a: 98

q: Look at this compound and give its reported Yield (±3%) of cell labeling. CCc1ccc(C(=S)S[S][99Tc]([S]SC(=S)c2ccc(CC)cc2)[S]C(=S)c2ccc(CC)cc2)cc1 [Example 8, [^99mTc(4-EtPhCS3)2(4-EtPhCS2)]]
a: 99

q: Look at this compound and give its reported Yield (±3%) of cell labeling. S=C(S[S][99Tc]([S]SC(=S)c1cccc2ccccc12)[S]C(=S)c1cccc2ccccc12)c1cccc2ccccc12 [Example 24, [^99mTc(1-naphCS3)2(1-naphCS2)]]
a: 74

q: Look at this compound and give its reported Yield (±3%) of cell labeling. Cc1ccc(C(=S)S[S][99Tc]([S]SC(=S)c2ccc(C)cc2)[S]C(=S)c2ccc(C)cc2)cc1 [Example 6, [^99mTc(4-MePhCS3)2(4-MePhCS2)]]
a: 95

q: Look at this compound and give its reported Yield (±3%) of cell labeling. Cc1ccc(C(=S)S[S][99Tc]([S]SC(=S)c2ccc(C)cc2)[S]C(=S)c2ccc(C)cc2)cc1 [Example 5, [^99mTc(4-MePhCS3)2(4-MePhCS2)]]
a: 98
